assay: folding enthalpy; higher = less favourable; fluorescence melt of hairpins on a sequencing array, two-state fit; conditions: sodium 0.088 M
Values of folding enthalpy greater than or equal to -30 kcal/mol map to Met; values below map to Not met.

Record excerpt, results attached:
residue.string: GCCGCAGCGAAAGCTGGC (((..(((....))))))
label: Met
//
residue.string: GTCGTACCGAAAGGTGAC (((..(((....))))))
label: Met
//
residue.string: GATCTAGTCTTAGATC ((((((....))))))
label: Not met
//
residue.string: GAGGGCGAAAGCCTCCTC ((((((....)))..)))
label: Met
//
residue.string: GCACCCTCGAAAGAGTGC (((..(((....))))))
label: Met

Q. Check if folding enthalpy >= -30 kcal/mol (inclusive). Item: CGTAGCGGAAACGCACG (((.(((....))))))
A. Met

Q. Identify whether the reported folding enthalpy of the following sequence is -30 kcal/mol or greater: GCGCACCGAAAGGTCCGC (((.(((....))).)))
A. Not met

Q. Would you say GTCTGCGCGAAAGCGGAC (((..(((....)))))) shows folding enthalpy at minimum -30 kcal/mol?
A. Met

Q. Determine whether measured folding enthalpy meets or exceeds -30 kcal/mol for GCGGTACCCGC ((((...))))
A. Met

Q. Evaluate GTGTTCCGAAAGGAGCAC (((.(((....))).))) : folding enthalpy at minimum -30 kcal/mol?
A. Not met

Q. Does the sequence GCCAATGGAAACATTGGC (((((((....))))))) have recorded folding enthalpy that is -30 kcal/mol or more?
A. Not met

Q. # bool: folding enthalpy of GATCGGGACCCCGATC ((((((....)))))) >= -30 kcal/mol
A. Not met

Q. Dear colleague, could you confirm whether GGTCGGCGAAAGCCTACC (((.(((....))).))) has folding enthalpy at or above -30 kcal/mol?
A. Met

Q. Exam item: decide whether the reported folding enthalpy for GAGGTAGGAAACTACCCC (.(((((....))))).) is at least -30 kcal/mol.
A. Met

Q. Is folding enthalpy for GGGAGTTCGAAAGAACCC (((..(((....)))))) at or above -30 kcal/mol?
A. Met

Q. Item GCCAGGCGAAAGCCCCGC ((..(((....)))..)) with folding enthalpy of -30 kcal/mol or above?
A. Met

Q. Please indicate if the recorded folding enthalpy for GTTAGTGGAAACGCTAAC (((((.(....).))))) meets or exceeds -30 kcal/mol.
A. Not met

Q. Test whether the sequence GATCTCATACGAGATC ((((((....)))))) records folding enthalpy of -30 kcal/mol or higher.
A. Not met
